# Experimental protocol: Metabolic stability in human liver microsomes assessed as half life at 2.5 uM measured upto 120 mins in presence of NADPH by LC-MS analysis
# Type: ADME, Microsome
# Particulars: microsomes, 2 h, 2.5 µM
Kindly supply the reported log10 of t1/2 values for the records listed here.
Answers are given as log10 of t1/2 in h.

log10 of t1/2 in this record for `CN(C)CCc1c[nH]c2cccc(OC(=O)c3ccc(Br)cc3)c12` : 0.16

log10 of t1/2 in this record for `COCCOCCOCC(=O)Oc1cccc2[nH]cc(CCN(C)C)c12` : -1.08

log10 of t1/2 in this record for `CC(C)[Si](C(C)C)(C(C)C)n1cc(CCN(C)C)c2c(OC(=O)Sc3ccccc3)cccc21` : -0.82

log10 of t1/2 in this record for `CN(C)CCc1c[nH]c2cccc(O[Si](C)(C)C(C)(C)C)c12` : 0.76

log10 of t1/2 in this record for `CN(C)CCc1c[nH]c2cccc(OC(=O)c3cccc(C(=O)Oc4cccc5[nH]cc(CCN(C)C)c45)c3)c12` : 0.60

log10 of t1/2 in this record for `CCC(=O)Oc1cccc2c1c(CCN(C)C)cn2[Si](C(C)C)(C(C)C)C(C)C` : -1.48

log10 of t1/2 in this record for `CC(C)OC(=O)OCOc1cccc2c1c(CCN(C)C)cn2COC(=O)OC(C)C` : 0.24

log10 of t1/2 in this record for `CN(C)CCc1c[nH]c2cccc(OC(=O)OCC(Cl)(Cl)Cl)c12` : 0.66

log10 of t1/2 in this record for `CN(C)CCc1c[nH]c2cccc(OC(=O)OCC3CC3)c12` : -1.17

log10 of t1/2 in this record for `CN(C)CCc1c[nH]c2cccc(O[Si](c3ccccc3)(c3ccccc3)C(C)(C)C)c12` : 0.58
